Hello, the source for this data is patent US8097637B2, in case you need it.

Molecular target: UniProtKB P28223
measurement.name: pKi
Value format note: pKi is -log10 of concentration (mol/L); just state the number.

Field: example entries. Status: answers known.
compound: COCC1CCC(CC(=O)N[C@H]2CC[C@H](CCN3CCC(C(=O)c4ccc(F)cc4)CC3)CC2)C1 (mixture of isomers)
pKi: 8.15
--
compound: CO[C@H]1CC[C@H](CC(=O)N[C@H]2CC[C@H](CCN3CCC(C(=O)c4ccc(F)cc4)CC3)CC2)C1 (racemic) [Example 8]
pKi: 7.80
--
compound: CO[C@@H]1CC[C@H](CC(=O)N[C@H]2CC[C@H](CCN3CCC(C(=O)c4ccc(F)cc4)CC3)CC2)C1 (racemic) [Example 9]
pKi: 8.22
--
compound: CO[C@H]1CC[C@H](CC(=O)N[C@H]2CC[C@H](CCN3CCC(C(=O)c4ccc(F)cc4)CC3)CC2)CC1
pKi: 8.22
--
compound: O=C(CC1CCC(OC2CCOC2)CC1)N[C@H]1CC[C@H](CCN2CCC(C(=O)c3ccc(F)cc3)CC2)CC1 (mixture of isomers)
pKi: 7.96
--
compound: COC1CCC(CCC(=O)N[C@H]2CC[C@H](CCN3CCC(C(=O)c4ccc(F)cc4)CC3)CC2)CC1 (mixture of isomers)
pKi: 8.15
--
compound: O=C(CC1CC(CO)C1)N[C@H]1CC[C@H](CCN2CCC(C(=O)c3ccc(F)cc3)CC2)CC1 (mixture of isomers)
pKi: 7.96
--
compound: CO[C@@H]1CC[C@@H](CC(=O)N[C@H]2CC[C@H](CCN3CCC(C(=O)c4ccc(F)cc4)CC3)CC2)C1 (single isomer, unassigned)
pKi: 7.80

[ask] Look up pKi with UniProtKB P28223 for this compound: COC[C@H]1C[C@H](CC(=O)N[C@H]2CC[C@H](CCN3CCC(C(=O)c4ccc(F)cc4)CC3)CC2)C1
[reply] 8.05

[ask] Look up pKi with UniProtKB P28223 for this compound: C[C@]1(O)CC[C@@H](CC(=O)N[C@H]2CC[C@H](CCN3CCC(C(=O)c4ccc(F)cc4)CC3)CC2)CC1 (single isomer, unassigned)
[reply] 8.05

[ask] Look up pKi with UniProtKB P28223 for this compound: CO[C@@H]1CCC[C@@H](CC(=O)N[C@H]2CC[C@H](CCN3CCC(C(=O)c4ccc(F)cc4)CC3)CC2)C1 (single isomer, unassigned)
[reply] 8.15

* * *

Target: human D2 dopamine receptor (Homo sapiens)
Construct: expressed in transfected cells; host or cells: HEK-293 EBNA cells, transient transfection; membrane preparation
Sequence (P14416 whole entry): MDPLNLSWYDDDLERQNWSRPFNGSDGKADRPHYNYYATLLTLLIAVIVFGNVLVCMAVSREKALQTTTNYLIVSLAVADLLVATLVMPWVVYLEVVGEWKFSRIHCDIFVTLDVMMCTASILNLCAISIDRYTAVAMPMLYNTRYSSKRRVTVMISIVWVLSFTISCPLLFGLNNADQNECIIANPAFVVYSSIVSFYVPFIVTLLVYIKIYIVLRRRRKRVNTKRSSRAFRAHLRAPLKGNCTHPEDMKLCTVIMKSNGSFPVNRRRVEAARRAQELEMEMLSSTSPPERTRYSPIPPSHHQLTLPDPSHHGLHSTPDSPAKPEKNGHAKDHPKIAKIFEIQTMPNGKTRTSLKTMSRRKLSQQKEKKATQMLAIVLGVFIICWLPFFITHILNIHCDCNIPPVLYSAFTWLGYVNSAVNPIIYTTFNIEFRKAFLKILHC
Assay: Radioligand binding ([3H]-spiperone) to cloned human D2 receptor, HEK-293 EBNA cell membranes
Details: 0.7 nM [3H]-spiperone, 1 h at RT, Cheng-Prusoff
measurement.name: Ki (nM)
Reply numerically in nM, unit not repeated.

Field: example entries. Status: answers known.
molecule: C[C@]1(O)CC[C@@H](CC(=O)N[C@H]2CC[C@H](CCN3CCC(C(=O)c4ccc(F)cc4)CC3)CC2)CC1 (single isomer, unassigned)
units.symbol: nM
numeric.result: 1200
--
molecule: CCO[C@H]1CC[C@H](CC(=O)N[C@H]2CC[C@H](CCN3CCC(C(=O)c4ccc(F)cc4)CC3)CC2)CC1
units.symbol: nM
numeric.result: 1400
--
molecule: O=C(C[C@H]1CCC[C@@H](O)C1)N[C@H]1CC[C@H](CCN2CCC(C(=O)c3ccc(F)cc3)CC2)CC1 (racemic)
units.symbol: nM
numeric.result: 1010
--
molecule: CO[C@@H]1CCC[C@@H](CC(=O)N[C@H]2CC[C@H](CCN3CCC(C(=O)c4ccc(F)cc4)CC3)CC2)C1 (single isomer, unassigned)
units.symbol: nM
numeric.result: 1250
--
molecule: O=C(C[C@H]1CC[C@@H](O)C1)N[C@H]1CC[C@H](CCN2CCC(C(=O)c3ccc(F)cc3)CC2)CC1 (racemic)
units.symbol: nM
numeric.result: 828
--
molecule: CO[C@@H]1CCC[C@H](CC(=O)N[C@H]2CC[C@H](CCN3CCC(C(=O)c4ccc(F)cc4)CC3)CC2)C1 (racemic)
units.symbol: nM
numeric.result: 1190

[ask] Look up Ki with human D2 dopamine receptor (Homo sapiens) for this molecule: COC[C@H]1CC[C@H](CC(=O)N[C@H]2CC[C@H](CCN3CCC(C(=O)c4ccc(F)cc4)CC3)CC2)CC1
[reply] 1010

[ask] Look up Ki with human D2 dopamine receptor (Homo sapiens) for this molecule: CCO[C@H]1CC[C@H](CC(=O)N[C@H]2CC[C@H](CCN3CCC(C(=O)c4ccc(F)cc4)CC3)CC2)C1 (racemic)
[reply] 1940

[ask] Look up Ki with human D2 dopamine receptor (Homo sapiens) for this molecule: CO[C@H]1CC[C@@H](CC(=O)N[C@H]2CC[C@H](CCN3CCC(C(=O)c4ccc(F)cc4)CC3)CC2)CC1
[reply] 1510

[ask] Look up Ki with human D2 dopamine receptor (Homo sapiens) for this molecule: O=C(C[C@H]1CC[C@H](O)C1)N[C@H]1CC[C@H](CCN2CCC(C(=O)c3ccc(F)cc3)CC2)CC1 (racemic)
[reply] 807

* * *

As an illustration, consider measured Ki for compounds on human 5-HT2A serotonin receptor (Homo sapiens, UniProt P28223).
Sequence (P28223 whole entry): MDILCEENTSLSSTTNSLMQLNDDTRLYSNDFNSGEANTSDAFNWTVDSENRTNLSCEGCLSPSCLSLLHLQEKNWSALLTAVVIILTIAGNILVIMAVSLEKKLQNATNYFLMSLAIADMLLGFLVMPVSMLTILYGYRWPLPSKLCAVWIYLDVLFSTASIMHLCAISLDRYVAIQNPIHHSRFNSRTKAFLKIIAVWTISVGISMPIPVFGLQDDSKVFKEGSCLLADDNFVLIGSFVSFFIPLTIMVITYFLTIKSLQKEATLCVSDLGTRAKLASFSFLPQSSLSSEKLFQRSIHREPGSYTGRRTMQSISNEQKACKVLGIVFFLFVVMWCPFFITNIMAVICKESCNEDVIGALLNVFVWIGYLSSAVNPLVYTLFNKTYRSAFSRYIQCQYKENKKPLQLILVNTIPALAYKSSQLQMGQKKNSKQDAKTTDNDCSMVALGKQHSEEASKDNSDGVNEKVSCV

Field: example entries. Status: answers known.
compound: O=C(C[C@H]1CCC[C@@H](O)C1)N[C@H]1CC[C@H](CCN2CCC(C(=O)c3ccc(F)cc3)CC2)CC1 (racemic)
target.under.test: human 5-HT2A serotonin receptor (Homo sapiens, UniProt P28223)
Ki: 14 nM

compound: O=C(CC1CCC(O)CC1)N[C@H]1CC[C@H](CCN2CCC(C(=O)c3ccc(F)cc3)CC2)CC1 (mixture of isomers)
target.under.test: human 5-HT2A serotonin receptor (Homo sapiens, UniProt P28223)
Ki: 13 nM

[ask] Name the reported Ki value associated with the compound C[C@]1(O)CC[C@H](CC(=O)N[C@H]2CC[C@H](CCN3CCC(C(=O)c4ccc(F)cc4)CC3)CC2)CC1 (single isomer, unassigned)
[reply] 7 nM

[ask] Name the reported Ki value associated with the compound COCC1CC(CC(=O)N[C@H]2CC[C@H](CCN3CCC(C(=O)c4ccc(F)cc4)CC3)CC2)C1 (mixture of isomers)
[reply] 12 nM

[ask] Name the reported Ki value associated with the compound CO[C@@H]1CCC[C@H](CC(=O)N[C@H]2CC[C@H](CCN3CCC(C(=O)c4ccc(F)cc4)CC3)CC2)C1 (racemic)
[reply] 19 nM

[ask] Name the reported Ki value associated with the compound CO[C@H]1CC[C@H](CC(=O)N[C@H]2CC[C@H](CCN3CCC(C(=O)c4ccc(F)cc4)CC3)CC2)C1 (single isomer, unassigned) [Example 14]
[reply] 7 nM

[ask] Name the reported Ki value associated with the compound CCO[C@H]1CC[C@H](CC(=O)N[C@H]2CC[C@H](CCN3CCC(C(=O)c4ccc(F)cc4)CC3)CC2)CC1
[reply] 13 nM

[ask] Name the reported Ki value associated with the compound CO[C@@H]1CC[C@H](CC(=O)N[C@H]2CC[C@H](CCN3CCC(C(=O)c4ccc(F)cc4)CC3)CC2)C1 (single isomer, unassigned) [Example 10]
[reply] 5 nM

[ask] Name the reported Ki value associated with the compound CO[C@H]1CC[C@@H](CC(=O)N[C@H]2CC[C@H](CCN3CCC(C(=O)c4ccc(F)cc4)CC3)CC2)C1 (single isomer, unassigned)
[reply] 11 nM

[ask] Name the reported Ki value associated with the compound O=C(C[C@H]1CC[C@@H](O)C1)N[C@H]1CC[C@H](CCN2CCC(C(=O)c3ccc(F)cc3)CC2)CC1 (racemic)
[reply] 11 nM

[ask] Name the reported Ki value associated with the compound O=C(CC1CCC2(CC1)OCCO2)N[C@H]1CC[C@H](CCN2CCC(C(=O)c3ccc(F)cc3)CC2)CC1
[reply] 6 nM

[ask] Name the reported Ki value associated with the compound O=C(C[C@H]1CC[C@H](O)C1)N[C@H]1CC[C@H](CCN2CCC(C(=O)c3ccc(F)cc3)CC2)CC1 (racemic)
[reply] 16 nM

[ask] Name the reported Ki value associated with the compound CO[C@H]1CC[C@@H](CC(=O)N[C@H]2CC[C@H](CCN3CCC(C(=O)c4ccc(F)cc4)CC3)CC2)CC1
[reply] 6 nM

[ask] Name the reported Ki value associated with the compound CC(=O)N[C@H]1CC[C@H](CC(=O)N[C@H]2CC[C@H](CCN3CCC(C(=O)c4ccc(F)cc4)CC3)CC2)CC1
[reply] 34 nM

[ask] Name the reported Ki value associated with the compound COC[C@H]1C[C@@H](CC(=O)N[C@H]2CC[C@H](CCN3CCC(C(=O)c4ccc(F)cc4)CC3)CC2)C1
[reply] 6 nM

[ask] Name the reported Ki value associated with the compound CCO[C@H]1CC[C@H](CC(=O)N[C@H]2CC[C@H](CCN3CCC(C(=O)c4ccc(F)cc4)CC3)CC2)C1 (racemic)
[reply] 28 nM
